Hey, just so you know, these numbers are from PubChem BioAssay.

- Test system: Plasmodium falciparum Sir2 (PF13_0152, Sir2A)
- ASSAY METHOD TEXT: pfSir2 binders on small-molecule microarrays, primary screen, biochemical, small-molecule microarray, 635 nm fluorescence (AID 1098);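 note: score merges spot fluorescence intensity with its signal-to-noise ratio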
- TEST SETTINGS: small-molecule microarray binding, fluorescence 635 nm; higher = more signal
RECORDED METRIC: composite z-score
Please reply with the number alone, leaving off any unit.

Would you please look over these solved cases?
C[C@@H]1C=CCC(=O)OC[C@H]2O[C@@H](C=C[C@@H]2O)[C@H](C)C=CCC(=O)OC[C@H]2O[C@H]1C=C[C@@H]2O = 0.489
C[C@H]1C2[C@H](Cc3ccccc3)NC(=O)[C@]23C(=O)N[C@H](Cc2ccccc2)C(=O)N[C@@H](Cc2ccccc2)C(=O)NC/C=C\C/C=C/C3[C@@H]2O[C@]12C (some centres undefined) = 0.0468
CCOC(=O)C1=CCC(c2cccc3ccccc23)N(S(=O)(=O)c2ccc(C)cc2)C1 (centres undefined) = 0.471

Enquiry: What composite z-score value was documented for this compound, `COC(=O)C[C@H]1O[C@]2(C(=O)N(Cc3ccccc3)c3ccc(I)cc32)[C@@H](C)[C@@H]1[Si](C)(C)c1ccc(OC)cc1` ?
Return: -0.237

====

- Test system: PRMT1 (protein arginine N-methyltransferase 1)
- ASSAY METHOD TEXT: PRMT1 binders on small-molecule microarrays, primary screen, biochemical, small-molecule microarray, 635 nm fluorescence (AID 1088);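 note: binding of Prmt1 protein to compounds spotted on small-molecule microarray slides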
- TEST SETTINGS: small-molecule microarray binding, higher = more signal
RECORDED METRIC: composite z-score

COc1ccc([Si](C)(C)[C@H]2[C@H](CC(=O)N(CCO)Cc3ccccc3)O[C@@]3(C(=O)N(C)c4ccccc43)[C@@H]2C)cc1 = 1.31
CCCC=C(CCC)[C@@H](NC(=O)c1ccc(C(F)(F)F)cc1)c1ccccc1 = 0.626
CCCC=C(CCC)[C@@H](NS(=O)(=O)c1cccc(C(F)(F)F)c1)c1ccc(C(=O)OC)cc1 = 0.133
CC(=O)Nc1ccc([C@H]2[C@H](C)CC[C@H]3C(=O)N4[C@@H](CC[C@@H](C)[C@@H]4c4ccc(NC(C)=O)cc4)C(=O)N32)cc1 = 1.53
O=C1C2C=CC(C(O)c3ccccc3)N(n3cnnc3)C2C(=O)N1Cc1ccccc1 (stereo unspecified) = 0.345

Enquiry: Item COC(=O)C1=CC(c2ccc(CO)cc2)=CC(c2cccs2)N(Cc2cccc(OC(F)(F)F)c2)C=C1C(=O)OC (stereo unspecified) with PRMT1 (protein arginine N-methyltransferase 1) - composite z-score?
Return: 1.27

Enquiry: Any idea what composite z-score came out for `C=CCN1C(=O)[C@]2(O[C@H](CCn3cc(CCO)nn3)[C@@H]([Si](C)(C)c3ccc(OC)cc3)[C@@H]2C)c2cc(NC(=O)c3ccc(OC)cc3)ccc21` on PRMT1 (protein arginine N-methyltransferase 1)?
Return: 1.25

Enquiry: Lab note: need composite z-score for `O=C(N1CCCCC1)[C@@]1(CCS(=O)(=O)c2ccccc2)N=C(c2ccc(OCCCO)cc2)O[C@H]1c1ccccc1` on PRMT1 (protein arginine N-methyltransferase 1), anyone have it?
Return: 1.24

Enquiry: Quick check: composite z-score on PRMT1 (protein arginine N-methyltransferase 1), item `COC(=O)C[C@H]1O[C@]2(C(=O)N(Cc3ccccc3)c3ccc(I)cc32)[C@@H](C)[C@@H]1[Si](C)(C)c1ccc(OC)cc1` ?
Return: -0.949

Enquiry: Form entry - test system: PRMT1 (protein arginine N-methyltransferase 1); read-out: composite z-score; molecule: `O=C1c2ccccc2[C@](Cc2ccccc2I)(C(=O)O)[C@H](c2ccc(CO)cc2)N1C1CCCCC1`
Return: 1.54

Enquiry: Please provide the recorded composite z-score for `O=C(NCc1ccccc1)[C@@]1(CCS(=O)(=O)c2ccccc2)COC(c2ccc(OCCCO)cc2)=N1` , tested on PRMT1 (protein arginine N-methyltransferase 1).
Return: 1.53

Enquiry: Recall the recorded composite z-score for `Cc1ccc(N2C(=O)c3ccccc3[C@](C)(C(=O)NCC(C)C)[C@@H]2c2ccc(CO)cc2)nc1` with PRMT1 (protein arginine N-methyltransferase 1) and state it.
Return: -0.644

Enquiry: Recall the recorded composite z-score for `CCOC(=O)C[C@H]1[C@H](OC(=O)c2cc3ccccc3oc2=O)[C@@H](NC(=O)c2ccc3ccccc3c2)c2cc(OCCCO)ccc2N1C(=O)c1ccc2ccccc2n1` with PRMT1 (protein arginine N-methyltransferase 1) and state it.
Return: 0.154

Enquiry: Lab note: need composite z-score with PRMT1 (protein arginine N-methyltransferase 1) for entry C=CCC(OC(C)=O)[C@@H]1[C@@H](N(Cc2ccc(-c3cccc(C(F)(F)F)c3)o2)C(=O)Cc2ccc(F)cc2)c2cc(OCCCO)ccc2N1C(=O)c1ccc(-c2ccccc2)cc1 (stereo partly specified) , please look it up.
Return: -0.621

Enquiry: I'm curious: which composite z-score was measured for `C=C(COC)/C(=C/C[C@@H](OC(C)=O)c1cccc(OCCO)c1)c1cc(C(=O)OC)ccc1OC` tested on PRMT1 (protein arginine N-methyltransferase 1)?
Return: 0.602

Enquiry: Provide value of composite z-score for this record tested with PRMT1 (protein arginine N-methyltransferase 1): `COc1cccc([C@H]2N[C@H](C(=O)O)CC[C@@H]2C)c1`
Return: -0.158

====

compounds and their reported composite z-score
- TARGET OF ASSAY: Follistatin-related protein 3 (Homo sapiens) (UniProt O95633)
- Sequence (O95633 whole entry, looked up): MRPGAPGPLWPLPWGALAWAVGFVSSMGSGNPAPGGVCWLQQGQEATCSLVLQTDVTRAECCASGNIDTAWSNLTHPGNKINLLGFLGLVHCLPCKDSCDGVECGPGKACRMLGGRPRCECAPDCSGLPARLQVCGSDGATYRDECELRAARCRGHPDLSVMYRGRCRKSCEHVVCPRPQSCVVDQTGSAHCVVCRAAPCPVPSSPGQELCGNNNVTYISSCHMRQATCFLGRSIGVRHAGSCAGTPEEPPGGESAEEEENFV
- ASSAY METHOD TEXT: FSTL3 binders on small-molecule microarrays, primary screen, biochemical, small-molecule microarray, 635 nm fluorescence (AID 1105);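 note: score merges emission near 667 nm and signal to noise per printed spot across three slides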
- TEST SETTINGS: FSTL3 binding, higher = more signal
Please reply with the value in numeric form only.

Example compounds with recorded composite z-score:
Cc1ccc(S[C@]2(C(=O)O)CC(=O)N(Cc3ccccc3)[C@@H]2c2ccc(CO)cc2)cc1 = -0.0951
C=CCOC(=O)[C@@H]1[C@H]2C(=O)O[C@H](c3ccccc3)[C@H](c3ccccc3)N2[C@H](c2ccc(OCCOC(=O)[C@H]3C[C@H]4C(=O)N5CCC[C@H]5C(=O)N4[C@H]3c3ccc(O)cc3)cc2)[C@@]12C(=O)Nc1ccccc12 = 1.34

Query compound follows.
Enquiry: Entry `Cc1ccc(S[C@]2(C(=O)NC3CC3)CC(=O)N(Cc3cc(C(F)(F)F)cc(C(F)(F)F)c3)[C@@H]2c2ccc(CO)cc2)cc1` has what composite z-score?
Return: 0.811

====

- ASSAY METHOD TEXT: E. coli DRC41 culture turbidity changes, primary screen, E. coli filamentation inducer project, strain DRC41, OD650, 48 h (AID 1152);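 note: E. coli MC1000 strain DRC41 lacking acrAB efflux pump and sulA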
- TEST SETTINGS: E. coli DRC41 (acrAB sulA), higher = more signal, called active from +8 up or from −8 down
We begin with a simple list: items and their reported z-score.
Number only, please.

CCCN1C(=O)[C@@]2(CCS(=O)(=O)c3ccccc3)N=C(c3ccc(OCCCO)cc3)O[C@H]2c2ccccc21 = 0.33

Enquiry: What value of measured z-score is listed for `CCCCCCc1nc(C2CC2)c(C)c2c1[Si](C(C)C)(C(C)C)OC2` ?
Return: 2.16

Enquiry: Given `CO[C@H]1O[C@H](CO)[C@@H](OC(=O)Nc2ccccc2)[C@H](OC(=O)Nc2ccc3c(c2)OCO3)[C@@H]1OC(=O)Nc1ccc2c(c1)OCO2` , state its recorded z-score.
Return: 1.44

Enquiry: Consider the molecule shown here: `COC(=O)C[C@H]1O[C@]2(C(=O)N(Cc3ccccc3)c3ccc(I)cc32)[C@@H](C)[C@@H]1[Si](C)(C)c1ccc(OC)cc1` What is its recorded z-score?
Return: -0.562

Enquiry: Given the entry `CCCC[C@@H]1C[C@H]1[C@@H](NC(=O)c1ccccc1)c1ccccc1C(F)(F)F` , report its measured z-score.
Return: -0.94

====

Each entry below lists one item and its recorded composite z-score value.
- TARGET OF ASSAY: Torsin-1A-interacting protein 2 (Homo sapiens)
- ASSAY METHOD TEXT: LULL1 binders on small-molecule microarray, primary screen, cell lysate, human LULL1 lysate, 635/667 nm fluorescence (AID 1092);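 note: probe is lysate of COS7 cells overexpressing human LULL1; score merges per-feature 667 nm fluorescence with signal-to-noise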
- TEST SETTINGS: hLULL1 lysate binding, 635 nm fluorescence, higher = more signal
Respond using a number only.

Cc1ccc([C@@H]2CC=C(C(=O)O)[C@H](c3ccccc3)N2S(=O)(=O)c2ccc(C)cc2)cc1 = 3.24
CCC#CCN(Cc1ccccc1Br)[C@H](/C=C/c1ccccc1)[C@@H](O)Cc1ccccc1 = 1.22
COC(=O)[C@@]1(Cc2ccccc2N=[N+]=[N-])N=C(c2ccc(OCCCO)cc2)O[C@H]1c1ccccc1CN=[N+]=[N-] = 2.6
CO[C@H]1O[C@H](CO)[C@@H](OC(=O)Nc2ccc3c(c2)OCO3)[C@H](OC(=O)Nc2ccccc2)[C@@H]1OC(=O)Nc1ccccc1 = 3.33
CO[C@H]1O[C@H](CO)[C@@H](OC(=O)CCc2ccccc2)[C@@H]2OC(=O)[C@H](Cc3cccc(Br)c3)C/C=C/C[C@@H](Cc3cccc(Br)c3)C(=O)O[C@@H]12 = 0.8

Enquiry: Given the molecule `CC(C)[Si]1(C(C)C)OCc2cc(C3CC3)nc(-c3ccccc3)c21` , what is its reported composite z-score?
Return: -0.431

Enquiry: Which composite z-score value belongs to `CCN1C(C)=C(C(=O)OC)[C@@H](c2ccccc2)N2C(=O)[C@](O)(C(=O)OC)[C@@H](c3ccccc3)C(C(=O)c3ccccc3)=C12` ?
Return: 1.41
